Each entry below carries its recorded log10 IC50.
# System: MCF-7 (estrogen receptor positive breast cancer cells)
# Assay procedure: Anti-proliferation assay (MTS/PMS, 72 h), MCF-7
# Format: cell-based
# Experimental parameters: Homo sapiens, MCF7, Table 6, para-para biphenyl core with substituted benzylamide
Would you kindly interpret these values as log10 of IC50 expressed in nM?

Worked cases, log10 IC50 given:
INSERT INTO assay_data (compound, readout_value) VALUES
  ('CN1CCC(Oc2ccc(-c3ccc(NC(=O)c4ccc(Cl)c(Cl)c4)cc3)cc2)CC1 [Compound 41n]', 3.20),
  ('COc1ccc(C(=O)Nc2ccc(-c3ccc(OC4CCN(C)CC4)cc3)cc2)cc1 [Compound 41f]', 2.81),
  ('CN1CCC(Oc2ccc(-c3ccc(NC(=O)c4ccccc4-c4ccccc4)cc3)cc2)CC1 [Compound 41q]', 3.82),
  ('Cc1ccc(C(=O)Nc2ccc(-c3ccc(OC4CCN(C)CC4)cc3)cc2)cc1 [Compound 41e]', 3.10);

Here is another compound to look at.
Request: Lab note: need log10 IC50 for CN1CCC(Oc2ccc(-c3ccc(NC(=O)c4cc5ccccc5s4)cc3)cc2)CC1 [Compound 47b] on MCF-7 (estrogen receptor positive breast cancer cells), anyone have it?
Result: 3.30
